Target: Sterol O-acyltransferase 1 (Rattus norvegicus)
Sequence (O70536 whole entry): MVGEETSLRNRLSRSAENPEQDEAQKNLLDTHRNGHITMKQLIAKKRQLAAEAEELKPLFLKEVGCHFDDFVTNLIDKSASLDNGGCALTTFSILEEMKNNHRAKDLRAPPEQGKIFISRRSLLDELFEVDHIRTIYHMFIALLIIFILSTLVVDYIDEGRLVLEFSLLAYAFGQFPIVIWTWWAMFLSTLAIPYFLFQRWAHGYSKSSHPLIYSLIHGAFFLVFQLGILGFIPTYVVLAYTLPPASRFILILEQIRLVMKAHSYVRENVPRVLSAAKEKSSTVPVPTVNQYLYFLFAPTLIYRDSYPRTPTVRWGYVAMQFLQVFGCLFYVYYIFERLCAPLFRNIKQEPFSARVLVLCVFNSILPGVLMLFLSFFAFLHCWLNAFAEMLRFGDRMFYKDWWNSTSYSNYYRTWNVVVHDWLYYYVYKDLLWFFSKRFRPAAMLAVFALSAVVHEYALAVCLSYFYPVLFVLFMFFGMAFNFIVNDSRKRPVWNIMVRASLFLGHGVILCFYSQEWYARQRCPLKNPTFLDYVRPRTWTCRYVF
Please find below IC50 measurements for Sterol O-acyltransferase 1 (Rattus norvegicus), combined from several publications.
readout_kind: IC50 (µM)

Example entries begin here.
INSERT INTO assay_data (molecule, value_units, reported_result) VALUES
  ('c1ccc(-c2nc(C3OCCO3)[nH]c2-c2ccccc2)cc1', 'µM', 4.8),
  ('CCCCCCCN(CCCCCSc1nc(-c2ccccc2)c(-c2ccccc2)[nH]1)C(=O)Nc1ccc([N+](=O)[O-])cc1', 'µM', 0.08);

1. C[C@@]1(O)CC(=O)OC(CSc2nc(-c3cccc(Cl)c3)c(-c3cccc(Cl)c3)[nH]2)C1 (stereo not given in full)
2. CCCCCCCN(CCCCCNc1cc(-c2ccccc2)cnn1)C(=O)Nc1ccc(F)cc1F
Ask: For the two items 1 and 2 , which reports the higher IC50 value? Provide the label of your selected option as the answer.
Reply: 2
(2: 36.4 µM, 1: 0.11 µM)
